Source: the supplement of paper PMC4954754

Tested on: HEK293T-Rex ERSE-FLuc
Test: ERSE-FLuc reporter activation, triplicate confirmation, relative to 500 nM thapsigargin (% of thapsigargin); higher = stronger ATF6/ERSE reporter activation
Conditions: 6.8 µM; 18 h; screen: confirmation
Response key: YES means ERSE-FLuc reporter activation >= 30; NO means ERSE-FLuc reporter activation < 30.

-- ask Could you tell me if the measured ERSE-FLuc reporter activation of CCN(CC)c1ccc(NC(=O)c2cccc(OC)c2)cc1 reaches 30 or more?
-- reply NO

-- ask And the next one, CS(=O)(=O)c1ncc(Cl)c(C(=O)C(C#N)c2nc3ccccc3s2)n1 (stereo not given) ?
-- reply YES

-- ask And the next one, Cc1ccc(O)c(NC(=O)c2cc(-c3cccs3)on2)c1 ?
-- reply YES

-- ask And the next one, O=C(CCc1ccccc1)Nc1ccc(Cl)cn1 ?
-- reply NO

-- ask And the next one, COc1c(O)cc2oc(-c3ccc(O)c(O)c3)cc(=O)c2c1O ?
-- reply YES

-- ask And the next one, COc1ccccc1-c1nnc(Nc2nc3c(OC)cccc3s2)o1 ?
-- reply YES

-- ask And the next one, O=C(N/N=C/c1cccc(O)c1O)c1ccccc1I ?
-- reply NO

-- ask And the next one, CCCCCCOc1ccc(/C(C)=N/NC2=NCCN2)cc1[N+](=O)[O-] ?
-- reply YES

-- ask And the next one, Nc1ccc2nc(/C=C/c3ccco3)[nH]c2c1 ?
-- reply YES

-- ask And the next one, CC(=O)N1CCc2c([nH]c3ccccc23)C12CCN(CCCOc1ccccc1)CC2 ?
-- reply YES

-- ask And the next one, CCCCCC(=O)Nc1ccc(C(=O)Nc2ccccc2O)cc1 ?
-- reply YES

-- ask And the next one, Nc1ccccc1NC(=O)c1ccc(Cl)cc1 ?
-- reply YES

-- ask And the next one, Oc1cccc(/C=N/Nc2ccc(Cl)nn2)c1O ?
-- reply YES

-- ask And the next one, Oc1ccc(-c2csc3nc(-c4ccccc4)nn23)c(O)c1 ?
-- reply YES

-- ask And the next one, Cc1ccc(O)c(N=CC2=C(O)c3ccccc3C2=O)c1 ?
-- reply YES

-- ask And the next one, Cc1cc2nc(/C(C#N)=C/c3ccco3)[nH]c2cc1C ?
-- reply YES

-- ask And the next one, CC(C)CNC(=O)c1cc(-c2ccc(F)cc2)no1 ?
-- reply NO

-- ask And the next one, N#CC1=C(N)Oc2c(ccc3ccccc23)C1c1ccccc1 (stereo not given) ?
-- reply NO

-- ask And the next one, COc1ccc(-c2csc(N(CC3CCCO3)C(=O)CCl)n2)cc1 (stereo not given) ?
-- reply NO

###

Test system: HEK293T-Rex XBP1-RLuc
Test: XBP1-RLuc splicing reporter activation, triplicate, relative to 500 nM thapsigargin (% of thapsigargin); higher = stronger IRE1/XBP1s reporter activation
Settings: 6.8 µM; 18 h; screen: confirmation
Response key: fulfilled means XBP1-RLuc splicing reporter activation >= 9; not fulfilled means XBP1-RLuc splicing reporter activation < 9.

-- ask Could you tell me if the measured XBP1-RLuc splicing reporter activation of COc1cccc(C(=O)/C=C/Nc2cc(C)ccc2O)c1 reaches 9 or more?
-- reply fulfilled

-- ask And the next one, Cc1ccc(C(=O)Nc2sc3c(c2C#N)CCC3)cc1 ?
-- reply not fulfilled

-- ask And the next one, CCOc1cccc(C(=O)Nc2ccc(-c3nc4ccc(C(=O)c5ccccc5)cc4[nH]3)cc2)c1 ?
-- reply fulfilled

-- ask And the next one, COCCNC(=O)c1cc(-c2cccs2)on1 ?
-- reply not fulfilled

-- ask And the next one, O=C1NC(=Nc2ccc(F)cc2)S/C1=C\c1ccc(O)c(O)c1 ?
-- reply fulfilled

-- ask And the next one, CCCCNC(=O)c1cc(-c2cccs2)on1 ?
-- reply fulfilled

-- ask And the next one, C=CCNC(=O)c1cc(-c2cccs2)on1 ?
-- reply not fulfilled

-- ask And the next one, Cc1cc(C)nc(Nc2nc(-c3ccc(O)c(O)c3)cs2)n1 ?
-- reply fulfilled

-- ask And the next one, CCOc1ccc2nc(NC(=O)c3ccn(C)n3)sc2c1 ?
-- reply not fulfilled

-- ask And the next one, Oc1ccc(/C=N/Nc2cccc3cccnc23)cc1O ?
-- reply fulfilled

-- ask And the next one, COc1ccc2oc(=Nc3cc(F)ccc3F)c(C(N)=O)cc2c1 ?
-- reply not fulfilled

###

Kindly state ERSE-FLuc reporter activation for each of the entries shown.
Tested on: HEK293T-Rex ERSE-FLuc
Assay: ERSE-FLuc reporter activation, triplicate confirmation, relative to 500 nM thapsigargin (% of thapsigargin); higher = stronger ATF6/ERSE reporter activation
Conditions: 6.8 µM; 18 h; screen: confirmation
Answer with a bare number; do not write a unit.

-- ask Fill blank: measured ERSE-FLuc reporter activation of the compound O=C1N/C(=C\c2ccc(O)cc2)C(O)=C1C=NCc1ccccc1 is ____.
-- reply 27.6

-- ask And the next one, COc1ccc(/C=N/c2sc3c(c2C(N)=O)CCCC3)cc1 ?
-- reply 26.4

-- ask And the next one, Cc1cc(C)nc(/N=C(\N)Nc2ccc(OCCC(C)C)cc2)n1 ?
-- reply 58.2

-- ask And the next one, O=C(Nc1ccc(O)cc1)c1c(O)c2c([nH]c1=O)CCCC2 ?
-- reply 29.7

###

System: HEK293T-Rex XBP1-RLuc
Experiment: XBP1-RLuc splicing reporter activation, triplicate, relative to 500 nM thapsigargin (% of thapsigargin); higher = stronger IRE1/XBP1s reporter activation
Conditions: 6.8 µM; 18 h; screen: confirmation
Kindly state XBP1-RLuc splicing reporter activation for each of the entries shown.

-- ask Fill blank: measured XBP1-RLuc splicing reporter activation of the molecule COc1cccc(C(=O)Nc2nc3ccc(C)cc3s2)c1 is ____.
-- reply 5.6

-- ask And the next one, COc1ccc(-c2csc(-c3ccc(O)cc3)n2)cc1 ?
-- reply 8.78

-- ask And the next one, Cc1ccc(/C=N/NC(=O)c2cccc(Cl)c2)cc1 ?
-- reply 0.915

-- ask And the next one, N#CC1=C(N)Oc2c(ccc3ccccc23)C1c1ccccc1 (stereo not given) ?
-- reply 14.2

-- ask And the next one, O=C(c1ccccc1)c1c(O)ccc2c(C(=O)c3ccccc3)c(O)ccc12 ?
-- reply 15.8

-- ask And the next one, N#Cc1c(NC(=O)c2ccc(Br)cc2)sc2c1CCCC2 ?
-- reply 1.92

-- ask And the next one, N#CC1=C(N)Oc2c(ccc3ccccc23)C1c1ccsc1 (stereo not given) ?
-- reply 9.04

-- ask And the next one, Cc1ccc(O)c(-c2cc(-c3ccc(F)cc3)n[nH]2)c1 ?
-- reply 3.17

-- ask And the next one, CC(C)NC(=O)c1cc(-c2ccc(O)cc2)on1 ?
-- reply 18.5

-- ask And the next one, Cc1ccc(O)c(N=CC2=C(O)c3ccccc3C2=O)c1 ?
-- reply 24.1

-- ask And the next one, Cc1ccc(O)c(NC(=O)CN(C)S(=O)(=O)c2ccc(Cl)cc2)c1 ?
-- reply 15.1

-- ask And the next one, CCCNC(=O)c1cc(-c2ccc(F)cc2)on1 ?
-- reply 4.12

-- ask And the next one, COc1ccc(NC(=O)/C(Cl)=C\c2ccccc2)cc1 ?
-- reply -0.467

-- ask And the next one, Cc1ccc(O)c(NC(=O)CCc2ccccc2)c1 ?
-- reply 17.5

-- ask And the next one, CCCNC(=O)c1cc(-c2cccs2)on1 ?
-- reply 5.97

###

Tested on: HEK293T-Rex XBP1-RLuc
Experiment: XBP1-RLuc splicing reporter activation, triplicate, relative to 500 nM thapsigargin (% of thapsigargin); higher = stronger IRE1/XBP1s reporter activation
Details: 6.8 µM; 18 h; screen: confirmation
Group membership follows XBP1-RLuc splicing reporter activation per the scheme b0 (below 5), b1 (5 to below 20), b2 (20 or more)

-- ask Form field 'band' for O=C(Nc1ccccc1O)c1cc2ccccc2o1
-- reply b1

-- ask And the next one, N#C/C(=C\c1ccc(O)c(O)c1)C(=O)Nc1ccccc1 ?
-- reply b1

-- ask And the next one, CCc1cc2c(=O)c(-c3ccc4c(c3)OCCO4)coc2cc1OC ?
-- reply b1

-- ask And the next one, N#Cc1c(NC(=O)c2cnccn2)sc2c1CCCC2 ?
-- reply b0

-- ask And the next one, O=C(CCCCCCC(=O)Nc1ccccc1)NO ?
-- reply b0

-- ask And the next one, O=C(/C=C/c1ccccc1)Nc1ccc(Cl)cn1 ?
-- reply b0

-- ask And the next one, CCC(=O)N(Cc1cc2cc(C)ccc2n2nnnc12)C1CCCC1 ?
-- reply b0

-- ask And the next one, O=C(Nc1ccc2nc(NC(=O)C3CCCCC3)sc2c1)C1CCCCC1 ?
-- reply b1

-- ask And the next one, Nc1ccc2nc(-c3cc(Cl)c(N)c(Cl)c3)[nH]c2c1 ?
-- reply b1

-- ask And the next one, N#Cc1c(NC(=O)c2ccc3c(c2)OCO3)sc2c1CCCC2 ?
-- reply b0

-- ask And the next one, COc1cccc(/C=N\NC(=O)c2n[nH]c3c2CCC3)c1 ?
-- reply b0

-- ask And the next one, O=C1/C(=C/c2ccc(O)c(O)c2)Oc2cc(O)ccc21 ?
-- reply b1

-- ask And the next one, O=[N+]([O-])c1ccc(N/N=C/c2ccccc2O)cc1 ?
-- reply b0

-- ask And the next one, COc1ccc(N(C(=O)c2ccccc2)S(=O)(=O)c2cc(OC)ccc2OC)cc1 ?
-- reply b2

-- ask And the next one, C=CCNC(=O)c1cc(-c2ccc(F)cc2)on1 ?
-- reply b0

-- ask And the next one, Oc1ccccc1/C=N\Nc1nc2ccccc2o1 ?
-- reply b1

-- ask And the next one, COc1cccc(Nc2nc(-c3ccc(OC)c(F)c3)cs2)c1 ?
-- reply b0

-- ask And the next one, CN1C(=O)/C(=C\c2ccc(O)c(O)c2)SC1=S ?
-- reply b1

-- ask And the next one, COc1cccc(-c2cc(C(=O)Nc3cc(C)ccc3O)on2)c1 ?
-- reply b1

-- ask And the next one, O=C(N/N=C/c1cccc(O)c1O)c1ccccn1 ?
-- reply b2

-- ask And the next one, Cc1cc2nc(-c3ccc(SCC#N)nc3)[nH]c2cc1C ?
-- reply b0

-- ask And the next one, O=C(Nc1ccc(O)cc1)c1ccc2ccccc2c1 ?
-- reply b1

-- ask And the next one, COc1ccc(/C(C)=N/OC/C(O)=C(\C#N)c2nc3ccccc3[nH]2)cc1OC ?
-- reply b2

-- ask And the next one, C/C(=N\NC(=O)c1n[nH]c2c1CCCC2)c1ccc2ccccc2c1 ?
-- reply b0

-- ask And the next one, Cc1ccc(O)c(-c2cc(C(F)(F)C(F)F)no2)c1 ?
-- reply b1

-- ask And the next one, Nc1nc(Nc2ccc(Cl)c(Cl)c2)nc2ccccc12 ?
-- reply b1

-- ask And the next one, OCCNc1nc(Nc2ccc(Br)cc2)nc2ccccc12 ?
-- reply b2

-- ask And the next one, O=C(N/N=C/c1ccc(Cl)cc1)c1n[nH]c2c1CCCC2 ?
-- reply b0

-- ask And the next one, Cc1ccc(O)c(N/C=C/C(=O)c2cccs2)c1 ?
-- reply b0

-- ask And the next one, O=c1[nH]c(/C=C2\C=Nc3ccccc32)c(O)n1-c1ccc(Cl)cc1 ?
-- reply b2

-- ask And the next one, O=C1c2cc(O)ccc2-c2ccc(O)cc21 ?
-- reply b1

-- ask And the next one, Cc1ccc(NC(=S)NC(=O)C(=O)Nc2ccccc2)cc1 ?
-- reply b2

-- ask And the next one, COc1ccccc1-c1nnc(Nc2nc3c(OC)cccc3s2)o1 ?
-- reply b1

-- ask And the next one, Oc1ccc(-c2csc(-c3cccnc3)n2)cc1O ?
-- reply b1

-- ask And the next one, COc1ccc(/C=C2\SC(=O)NC2=Nc2ccc(C)cc2)c(OC)c1 ?
-- reply b1

-- ask And the next one, Cc1ccccc1NC(=O)c1sc2nc(N)c(C#N)c(-c3ccc(C(C)C)cc3)c2c1N ?
-- reply b1

-- ask And the next one, CN(c1ccccc1)S(=O)(=O)c1cccc(C(=O)NCCc2ccc(O)c(O)c2)c1 ?
-- reply b2

-- ask And the next one, COc1ccccc1/C=N/Nc1nc(-c2ccccc2)cc(=O)[nH]1 ?
-- reply b1

-- ask And the next one, CN(C)c1ccc(/C=C(/C#N)C(=O)Nc2ccc(O)cc2)cc1 ?
-- reply b2

-- ask And the next one, COc1cccc(C2=NOC(C(=O)Nc3cc(C)ccc3O)C2)c1 (stereo not given) ?
-- reply b1

-- ask And the next one, O=C(/C=C/c1ccco1)Nc1ccc(Br)cc1Cl ?
-- reply b0

-- ask And the next one, OCCNc1nc(Nc2ccc(Cl)c(Cl)c2)nc2ccccc12 ?
-- reply b2

-- ask And the next one, CN(C)/C=N/C1=C(C#N)C(c2ccc3c(c2)OCO3)c2ccc3ccccc3c2O1 (stereo not given) ?
-- reply b0

-- ask And the next one, Cc1ccc(O)c(NC(=O)c2cc(-c3ccc(F)cc3)on2)c1 ?
-- reply b1
